Sourced from paper PMC4691232

Molecular target: WcbL (Burkholderia pseudomallei, UniProt H7C745)
Sequence (H7C745 1-346): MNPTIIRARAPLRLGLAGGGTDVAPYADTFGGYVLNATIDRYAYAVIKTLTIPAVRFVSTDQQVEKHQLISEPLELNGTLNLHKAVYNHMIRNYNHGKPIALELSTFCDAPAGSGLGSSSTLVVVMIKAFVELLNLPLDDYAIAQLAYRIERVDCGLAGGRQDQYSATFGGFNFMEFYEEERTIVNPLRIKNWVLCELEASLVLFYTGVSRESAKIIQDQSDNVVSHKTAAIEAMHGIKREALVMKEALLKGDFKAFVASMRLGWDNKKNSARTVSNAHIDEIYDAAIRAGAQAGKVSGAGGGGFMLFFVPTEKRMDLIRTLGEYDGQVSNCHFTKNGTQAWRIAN
Assay: biochemical
Listing: Kd of selected molecules

O=P(O)(O)OCC(O)C1OC(O)C(O)C(O)C1O [M7P, D-manno-α,β-D-heptose-7-phosphate] | 968 µM

Please look at the following molecule next.
Inquiry: Give the measured Kd for Nc1ncnc2c1ncn2[C@@H]1OC(COP(=O)(O)OP(=O)(O)OP(=O)(O)O)[C@@H](O)[C@H]1O (some centres unmarked)
Reply text: 33 µM
